# experimental target: SIRT2 (Homo sapiens, UniProt Q8IXJ6)
# Sequence (Q8IXJ6 whole entry): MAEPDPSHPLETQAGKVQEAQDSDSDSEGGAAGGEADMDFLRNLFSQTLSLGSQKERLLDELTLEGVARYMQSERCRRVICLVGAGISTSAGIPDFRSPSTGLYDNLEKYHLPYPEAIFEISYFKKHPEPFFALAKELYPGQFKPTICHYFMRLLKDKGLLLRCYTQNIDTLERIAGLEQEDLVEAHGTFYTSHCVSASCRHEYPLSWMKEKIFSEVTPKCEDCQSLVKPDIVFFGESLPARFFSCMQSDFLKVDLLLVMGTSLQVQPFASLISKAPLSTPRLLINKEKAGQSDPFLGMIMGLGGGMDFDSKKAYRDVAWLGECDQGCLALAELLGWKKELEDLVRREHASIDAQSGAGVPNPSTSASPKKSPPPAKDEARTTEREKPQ
# method notes: mass spectrometry based assay to identify modulators of SIRT2 inhibition
# Type: biochemical
measured endpoint: IC50

compound="Cc1nc2cccc(NC(=O)c3cnccn3)c2c(=O)n1-c1cccc(C(F)(F)F)c1 [Compound 2]" observed_value="10 to 50 µM"

----------
# experimental target: SIRT1 (Homo sapiens, UniProt Q96EB6)
# Sequence (Q96EB6 whole entry): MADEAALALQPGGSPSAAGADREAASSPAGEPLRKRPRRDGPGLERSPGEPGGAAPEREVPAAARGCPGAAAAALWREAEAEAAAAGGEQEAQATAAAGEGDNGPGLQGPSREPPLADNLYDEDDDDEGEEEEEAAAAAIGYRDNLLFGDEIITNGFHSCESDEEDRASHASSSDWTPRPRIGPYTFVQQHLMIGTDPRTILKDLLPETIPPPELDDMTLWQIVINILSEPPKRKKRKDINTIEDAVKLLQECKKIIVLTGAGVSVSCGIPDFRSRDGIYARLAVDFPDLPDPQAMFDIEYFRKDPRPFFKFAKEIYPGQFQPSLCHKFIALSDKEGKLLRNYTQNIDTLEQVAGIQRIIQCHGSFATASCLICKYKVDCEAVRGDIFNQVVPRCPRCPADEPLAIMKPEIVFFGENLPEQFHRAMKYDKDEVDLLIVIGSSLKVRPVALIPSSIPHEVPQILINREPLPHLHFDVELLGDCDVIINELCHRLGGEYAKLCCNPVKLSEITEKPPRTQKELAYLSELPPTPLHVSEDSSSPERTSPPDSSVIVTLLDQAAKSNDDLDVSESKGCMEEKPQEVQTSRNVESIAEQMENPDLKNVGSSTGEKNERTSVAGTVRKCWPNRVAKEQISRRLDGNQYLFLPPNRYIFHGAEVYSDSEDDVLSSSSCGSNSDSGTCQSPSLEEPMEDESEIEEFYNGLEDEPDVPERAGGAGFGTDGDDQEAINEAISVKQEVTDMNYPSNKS
# method notes: mass spectrometry based assay to identify modulators of SIRT1 activity
# Format: biochemical
# experimental setup: concentration for 1.5-fold activation of SIRT1 deacetylase; 0.5 μM peptide substrate, 120 μM βNAD+, 10 nM SIRT1, 25 min at 25° C.; read-out: SIRT1 EC1.5 UM
measured endpoint: EC1.5 (concentration for 1.5-fold activation)

compound="Cc1nc2cccc(NC(=O)c3cscn3)c2c(=O)n1-c1cccc(OC(F)(F)F)c1 [Compound 3]" observed_value="> 50 µM"
compound="Cc1nc2cccc(NC(=O)c3cccc(CN4CCOCC4)n3)c2c(=O)n1-c1cccc(C(F)(F)F)c1 [Compound 7]" observed_value="< 50 µM"
compound="Cc1nc2cccc(NC(=O)c3cnccn3)c2c(=O)n1-c1cccc(OC(F)(F)F)c1 [Compound 4]" observed_value="< 50 µM"
compound="Cc1nc2cccc(NC(=O)c3cscn3)c2c(=O)n1-c1cccc(C(F)(F)F)c1 [Compound 8]" observed_value="< 50 µM"
compound="Cc1nc2cccc(NC(=O)Cc3cccnc3)c2c(=O)n1-c1cccc(OC(F)(F)F)c1 [Compound 5]" observed_value="> 50 µM"
compound="Cc1nc2cccc(NC(=O)c3cccc(OCC(O)CO)n3)c2c(=O)n1-c1cccc(OC(F)(F)F)c1 (stereo not drawn) [Compound 9]" observed_value="< 50 µM"
